assayTarget: Adenosine receptors; A1 & A2 (Rattus norvegicus) (UniProt P29276+P25099+P30543)
testDetails: Ratio of Ki values of A1 adenosine and A2 adenosine receptor
Format: protein assay
Returns the class for an entry based on its Ratio. Class ranges: class 1 (below 10), class 2 (10 to below 60), class 3 (60 or more)

Query block: Would you mind sorting OC[C@H]1O[C@@H](n2cnc3c(NC4CCSc5ccccc54)ncnc32)[C@H](O)[C@@H]1O (some centres not stated) into the appropriate category?
Result block: class 1

Query block: And then CC(C)Oc1cccc2c1CCCC2Nc1ncnc2c1ncn2[C@@H]1O[C@H](CO)[C@@H](O)[C@H]1O (some centres not stated) , what is it?
Result block: class 1

Query block: And then OC[C@H]1O[C@@H](n2cnc3c(NC4CCOc5ccccc54)ncnc32)[C@H](O)[C@@H]1O (some centres not stated) , what is it?
Result block: class 1

Query block: And then OC[C@H]1O[C@@H](n2cnc3c(NC4CCCc5ccccc54)ncnc32)[C@H](O)[C@@H]1O (some centres not stated) , what is it?
Result block: class 1

Query block: And then OC[C@H]1OC(n2cnc3c(NCC4(O)CCCc5ccccc54)ncnc32)[C@H](O)[C@@H]1O (some centres not stated) , what is it?
Result block: class 2

Query block: And then OC[C@H]1OC(n2cnc3c(NCC4=CCCCc5ccccc54)ncnc32)[C@H](O)[C@@H]1O (some centres not stated) , what is it?
Result block: class 1

Query block: And then CCOc1ccc2c(c1)CCC2Nc1ncnc2c1ncn2[C@@H]1O[C@H](CO)[C@@H](O)[C@H]1O (some centres not stated) , what is it?
Result block: class 3

Query block: And then CC(C)Oc1ccc2c(c1)C(Nc1ncnc3c1ncn3[C@@H]1O[C@H](CO)[C@@H](O)[C@H]1O)CCC2 (some centres not stated) , what is it?
Result block: class 3

Query block: And then `OC[C@H]1O[C@@H](n2cnc3c(N[C@@H]4CCc5ccccc54)ncnc32)[C@H](O)[C@@H]1O` , what is it?
Result block: class 2

Query block: And then OC[C@H]1O[C@@H](n2cnc3c(NC4CCCc5ccc(OCc6ccccc6)cc54)ncnc32)[C@H](O)[C@@H]1O (some centres not stated) , what is it?
Result block: class 2

Query block: And then CCCCOc1ccc2c(c1)CCC2Nc1ncnc2c1ncn2[C@@H]1O[C@H](CO)[C@@H](O)[C@H]1O (stereo in doubt; 15) , what is it?
Result block: class 3

Query block: And then CCOc1cccc2c1CCCC2Nc1ncnc2c1ncn2[C@@H]1O[C@H](CO)[C@@H](O)[C@H]1O (some centres not stated) , what is it?
Result block: class 1

Query block: And then OC[C@H]1O[C@@H](n2cnc3c(NCC4CCCc5ccccc54)ncnc32)[C@H](O)[C@@H]1O (some centres not stated) , what is it?
Result block: class 1

Query block: And then `OC[C@H]1O[C@@H](n2cnc3c(N[C@H]4CCc5ccccc54)ncnc32)[C@H](O)[C@@H]1O` , what is it?
Result block: class 3

Query block: And then OC[C@H]1O[C@@H](n2cnc3c(NC4CSc5ccccc5C4)ncnc32)[C@H](O)[C@@H]1O (some centres not stated) , what is it?
Result block: class 3

Query block: And then CC(C)COc1ccc2c(c1)CCC2Nc1ncnc2c1ncn2[C@@H]1O[C@H](CO)[C@@H](O)[C@H]1O (some centres not stated) , what is it?
Result block: class 3

The values you see were collected from ChEMBL document CHEMBL1125617.
